target under test: urokinase (uPA) (Homo sapiens, UniProt P00749)
Construct: purchased Calbiochem-Novabiochem GmbH, Bad Soden, Germany
procedure text: In vitro inhibition of urokinase (Ki according to Dixon, chromogenic substrate)
Type: biochemical
study conditions: read-out: Ki uPA
Where a name gives a salt, the structure may show the parent alone.
Ki values for the compounds below.
Numeric only. Scale: µM

{"compound": "CC1(C)C2CCC1(CS(=O)(=O)NC(CO)C(=O)NCC(=O)NCc1ccc(NC(=N)N)cc1)C(=O)C2 (centres unmarked) [WX-C298, hydrochloride]", "target under test": "urokinase (uPA) (Homo sapiens, UniProt P00749)", "units text": "µM", "Ki": 0.16}
{"compound": "COc1ccc(NC(=O)NC(CO)C(=O)NCC(=O)NCc2ccc(NC(=N)N)cc2)cc1 (centres unmarked) [WX-C306, hydrochloride]", "target under test": "urokinase (uPA) (Homo sapiens, UniProt P00749)", "units text": "µM", "Ki": 4.1}
{"compound": "N=C(N)Nc1ccc(S(=O)(=O)NCCNC(=O)C(CO)NS(=O)(=O)Cc2ccccc2)cc1 (centres unmarked) [WX-568, hydrochloride]", "target under test": "urokinase (uPA) (Homo sapiens, UniProt P00749)", "units text": "µM", "Ki": 2.1}

With those in mind, consider the next compound.
What does the data say about its Ki? Entry: C[C@@H](C(=O)NCc1ccc(NC(=N)N)cc1)N(C)C(=O)[C@@H](CO)NS(=O)(=O)Cc1ccc(Cl)cc1 [WX-582]
0.01

# credit: patent US20040266766A1
